Origin of the recorded values: ChEMBL document CHEMBL1147729

test: Half life in rat hypothalamus at 3 mg/kg, po; assay type: ADME, organism-based; set-up: dose 3 mg/kg, route oral

- molecule: "CC(O)(CS(=O)(=O)c1ccc(F)cc1)C(=O)Nc1ccc(C#N)c(C(F)(F)F)c1 (stereo unspecified) [BICALUTAMIDE]"
  half-life, h: 27.8

====

Measured Cmax by item
assay: Cmax in rat hypothalamus at 3 mg/kg, po; assay type: ADME, organism-based; design: dose 3 mg/kg, route oral

- compound: "CC(O)(CS(=O)(=O)c1ccc(F)cc1)C(=O)Nc1ccc(C#N)c(C(F)(F)F)c1 (configuration not stated) [BICALUTAMIDE]"
  unit: "ng/mL"
  Cmax: 321
- compound: "C[C@@H]1CN(c2ccc(C#N)c(C(F)(F)F)c2)[C@@H](C)CN1C(=O)Nc1ccc(C(F)(F)F)nc1 (racemic)"
  unit: "ng/mL"
  Cmax: 96

====

assay: Oral clearance in rat hypothalamus at 3 mg/kg, po; assay type: ADME, organism-based; parameters: dose 3 mg/kg, route oral
parameter-measured: CL/F

- compound: "CC(O)(CS(=O)(=O)c1ccc(F)cc1)C(=O)Nc1ccc(C#N)c(C(F)(F)F)c1 (stereo unspecified) [BICALUTAMIDE]"
  obs-value: "3.75 mL/min/kg"

====

CL/F for assorted compounds
assay: Oral clearance in rat at 3 mg/kg, po; assay type: ADME, organism-based; design: dose 3 mg/kg, route oral; conditions: in vivo

- compound: "C[C@@H]1CN(c2ccc(C#N)c(C(F)(F)F)c2)[C@@H](C)CN1C(=O)Nc1ccc(C(F)(F)F)nc1 (racemic)"
  CL/F: "2.22 mL/min/kg"
- compound: "CC(O)(CS(=O)(=O)c1ccc(F)cc1)C(=O)Nc1ccc(C#N)c(C(F)(F)F)c1 (configuration not stated) [BICALUTAMIDE]"
  CL/F: "0.945 mL/min/kg"

====

experiment: AUC (0-72)hrs in rat hypothalamus at 3 mg/kg, po; assay type: ADME, organism-based; parameters: time < 72 hr, dose 3 mg/kg, route oral
Measured AUC at 72 h, listed per entry.
parameter-measured: AUC at 72 h (ng·h/mL)

- compound: "C[C@@H]1CN(c2ccc(C#N)c(C(F)(F)F)c2)[C@@H](C)CN1C(=O)Nc1ccc(C(F)(F)F)nc1 (racemic)"
  unit: "ng·h/mL"
  obs-value: 2580
- compound: "CC(O)(CS(=O)(=O)c1ccc(F)cc1)C(=O)Nc1ccc(C#N)c(C(F)(F)F)c1 (configuration not stated) [BICALUTAMIDE]"
  unit: "ng·h/mL"
  obs-value: 10600

====

assay: AUC (0-72)hrs in rat ventral prostate at 3 mg/kg, po; type: ADME, organism-based, Prostate gland; set-up: time < 72 hr, dose 3 mg/kg, route oral
Recorded AUC at 72 h for the following compounds
parameter-measured: AUC at 72 h (ng·h/mL)

- compound: "C[C@@H]1CN(c2ccc(C#N)c(C(F)(F)F)c2)[C@@H](C)CN1C(=O)Nc1ccc(C(F)(F)F)nc1 (racemic)"
  obs-value: 43200
- compound: "CC(O)(CS(=O)(=O)c1ccc(F)cc1)C(=O)Nc1ccc(C#N)c(C(F)(F)F)c1 (configuration not stated) [BICALUTAMIDE]"
  obs-value: 52500

====

Biological target: UniProt P10275
Sequence (P10275 whole entry): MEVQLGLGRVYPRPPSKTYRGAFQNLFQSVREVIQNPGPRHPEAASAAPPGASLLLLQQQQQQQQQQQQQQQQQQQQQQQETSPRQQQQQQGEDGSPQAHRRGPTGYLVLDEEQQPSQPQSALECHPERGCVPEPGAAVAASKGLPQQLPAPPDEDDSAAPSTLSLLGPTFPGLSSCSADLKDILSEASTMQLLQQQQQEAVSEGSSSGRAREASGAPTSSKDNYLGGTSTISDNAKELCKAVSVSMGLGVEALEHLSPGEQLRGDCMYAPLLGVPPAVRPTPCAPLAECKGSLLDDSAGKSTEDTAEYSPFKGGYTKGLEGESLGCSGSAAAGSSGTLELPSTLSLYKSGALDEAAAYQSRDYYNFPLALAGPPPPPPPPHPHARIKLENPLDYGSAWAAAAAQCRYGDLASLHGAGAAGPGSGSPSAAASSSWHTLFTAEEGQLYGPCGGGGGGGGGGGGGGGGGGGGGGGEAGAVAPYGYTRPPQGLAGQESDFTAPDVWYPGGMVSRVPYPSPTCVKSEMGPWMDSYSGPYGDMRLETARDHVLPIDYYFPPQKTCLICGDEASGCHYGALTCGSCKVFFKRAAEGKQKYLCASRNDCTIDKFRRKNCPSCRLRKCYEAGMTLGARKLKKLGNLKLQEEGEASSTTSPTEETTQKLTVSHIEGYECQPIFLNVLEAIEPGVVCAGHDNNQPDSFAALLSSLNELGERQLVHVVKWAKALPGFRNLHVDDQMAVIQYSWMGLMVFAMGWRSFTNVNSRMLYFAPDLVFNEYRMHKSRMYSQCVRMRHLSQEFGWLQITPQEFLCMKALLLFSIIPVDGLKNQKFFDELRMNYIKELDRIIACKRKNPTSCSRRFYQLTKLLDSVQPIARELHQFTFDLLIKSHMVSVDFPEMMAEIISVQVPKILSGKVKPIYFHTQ
pIC50: −log10 of the molar value.

- molecule: "C[C@@H]1CN(c2ccc(C#N)c(C(F)(F)F)c2)[C@@H](C)CN1C(=O)Nc1ccncn1 (racemic)"
  result-operator: "="
  pIC50: 5.34
- molecule: "C[C@@H]1CN(c2ccc(C#N)c(C(F)(F)F)c2)[C@@H](C)CN1C(=O)Nc1cncnc1 (racemic)"
  result-operator: "="
  pIC50: 6.00
- molecule: "C[C@@H]1CN(c2ccc(C#N)c(C(F)(F)F)c2)[C@@H](C)CN1C(=O)Nc1ccc(C#N)nc1 (racemic)"
  result-operator: "="
  pIC50: 6.70
- molecule: "C[C@@H]1CN(c2ccc(C#N)c(C(F)(F)F)c2)[C@@H](C)CN1C(=O)Nc1ncccn1 (racemic)"
  result-operator: "<"
  pIC50: 5.00
- molecule: "Cc1ccc(NC(=O)N2C[C@H](C)N(c3ccc(C#N)c(C(F)(F)F)c3)C[C@H]2C)cn1 (racemic)"
  result-operator: "="
  pIC50: 6.89
- molecule: "Cc1ncccc1NC(=O)N1C[C@H](C)N(c2ccc(C#N)c(C(F)(F)F)c2)C[C@H]1C (racemic)"
  result-operator: "="
  pIC50: 6.17
- molecule: "C[C@@H]1CN(c2ccc(C#N)c(C(F)(F)F)c2)[C@@H](C)CN1C(=O)Nc1ccc(F)cc1F"
  result-operator: "="
  pIC50: 6.70
- molecule: "C[C@@H]1CN(c2ccc(C#N)c(C(F)(F)F)c2)[C@@H](C)CN1C(=O)Nc1ccc(Cl)nc1 (racemic)"
  result-operator: "="
  pIC50: 6.14
- molecule: "COc1ccc(NC(=O)N2C[C@H](C)N(c3ccc(C#N)c(C(F)(F)F)c3)C[C@H]2C)cn1 (racemic)"
  result-operator: "="
  pIC50: 6.77
- molecule: "C[C@@H]1CN(c2ccc(C#N)c(C(F)(F)F)c2)[C@@H](C)CN1C(=O)Nc1ccc(O)nc1 (racemic)"
  result-operator: "<"
  pIC50: 5.00
- molecule: "COc1ncccc1NC(=O)N1C[C@H](C)N(c2ccc(C#N)c(C(F)(F)F)c2)C[C@H]1C (racemic)"
  result-operator: "="
  pIC50: 6.72

====

Target: Estrogen receptor (Homo sapiens, UniProt P03372)
Sequence (P03372 whole entry): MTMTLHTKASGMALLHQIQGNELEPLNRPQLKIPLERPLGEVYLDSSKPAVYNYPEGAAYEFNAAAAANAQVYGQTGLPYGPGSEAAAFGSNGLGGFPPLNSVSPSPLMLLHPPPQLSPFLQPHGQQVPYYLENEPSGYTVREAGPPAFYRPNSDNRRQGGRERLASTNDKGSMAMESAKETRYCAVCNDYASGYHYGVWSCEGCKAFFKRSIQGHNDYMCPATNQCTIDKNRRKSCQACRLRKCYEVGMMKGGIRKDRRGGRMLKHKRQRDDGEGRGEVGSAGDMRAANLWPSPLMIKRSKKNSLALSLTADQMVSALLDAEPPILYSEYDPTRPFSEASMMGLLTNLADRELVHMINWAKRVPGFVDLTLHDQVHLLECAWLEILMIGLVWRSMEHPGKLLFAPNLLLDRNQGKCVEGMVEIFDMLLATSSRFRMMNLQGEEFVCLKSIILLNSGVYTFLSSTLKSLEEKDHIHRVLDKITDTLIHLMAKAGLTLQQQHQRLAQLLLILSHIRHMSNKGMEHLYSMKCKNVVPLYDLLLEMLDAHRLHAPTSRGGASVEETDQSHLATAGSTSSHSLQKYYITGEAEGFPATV

- compound: "C[C@@H]1CN(c2ccc(C#N)c(C(F)(F)F)c2)[C@@H](C)CN1C(=O)Nc1ccc(C(F)(F)F)nc1 (racemic)"
  tested-on: "Estrogen receptor (Homo sapiens, UniProt P03372)"
  Ki: "> 100 µM"
